Experiment: chemical genetic growth profiling, strain panel (AID 1159580);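 note: tested at 20 µM; growth read once vehicle control cultures reached saturation at 30 °C; 1 = growth at the plate median or of vehicle wells; lower values mean less growth of the strain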
Conditions: S. cerevisiae deletion strains, growth OD, locus YLR262C, strain YPT6
The campaign covered roughly 5,500 compounds. About 2,000 (36%) were called active. About 18% were inconclusive and are not listed. Cut-off read from the data, not from the text of the source: active = normalized growth mostly below about 0.91 (no sharp cut-off); inconclusive = no clear call, values can overlap the other calls; inactive = mostly above about 0.92. This is one part of the list.
Select the matching outcome among active, inactive

Use these answered entries as a reference point.
INSERT INTO assay_data (compound, category) VALUES
  ('CCOc1ccc(/C=C(\C#N)c2cccc(Cl)c2)cc1', 'inactive'),
  ('CCOC(=O)C(=CNNC(=O)c1ccccc1-n1cccc1)C(=O)OCC', 'inactive'),
  ('COc1cccc(OC)c1C(C)(O)C(OC)OC (stereo not given)', 'inactive'),
  ('CCOC(=O)C(=CNc1ccccc1N1CCOCC1)C(=O)OCC', 'inactive'),
  ('CC(C)OC(=O)C(C)(C)Oc1ccc(C(=O)c2ccc(Cl)cc2)cc1', 'inactive'),
  ('CC(C)CC(NC(=O)C(Cc1ccccc1)NC(=O)CNC(=O)CNC(=O)C(N)Cc1ccc(O)cc1)C(=O)O (stereo not given)', 'active'),
  ('CC1CC2C3CCC4=CC(=O)C=C[C@]4(C)[C@@]3(F)[C@@H](O)C[C@]2(C)[C@@]1(O)C(=O)CO (stereo not given in full)', 'inactive'),
  ('CCCCNc1cc(C(=O)O)cc(S(N)(=O)=O)c1Oc1ccccc1', 'inactive'),
  ('C=C(C)[C@@H]1[C@H]2OC(=O)[C@@H]1[C@]1(O)C[C@H]3O[C@]34C(=O)O[C@H]2[C@]14C', 'inactive');

From here, focus on the item given below.
Problem: What classification did CCOC(=O)C(=CNc1cccc(C#N)c1)C(=O)OCC end up with in this test?
Solution: inactive

====

Experiment: chemical genetic growth profiling, strain panel (AID 1159580);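 note: tested at 20 µM; growth read once vehicle control cultures reached saturation at 30 °C; 1 = growth at the plate median or of vehicle wells; lower values mean less growth of the strain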
Details: S. cerevisiae deletion strains, growth OD, locus YNR052C, strain pop2, stronger effect = lower value
The campaign covered roughly 5,500 compounds. About 2,000 (36%) were called active. Roughly 18% stayed inconclusive and do not appear here. Some of the results follow.
Entries and their normalized growth values follow.
A bare number is all that is needed in reply.

The following compounds have reported results that may help.
INSERT INTO assay_data (compound, readout_number) VALUES
  ('CC1(C)C(C=C(Cl)Cl)C1C(=O)OC(C#N)c1cccc(Oc2ccccc2)c1 (stereo not given)', 0.979),
  ('CC(C)CC(NC(=O)C(Cc1ccccc1)NC(=O)CNC(=O)CNC(=O)C(N)Cc1ccc(O)cc1)C(=O)O (stereo not given)', 0.981),
  ('C[N+](C)(C)CCCCCC[N+](C)(C)C', 0.987),
  ('CC(C(=O)O)c1ccc(-c2ccccc2)c(F)c1 (stereo not given)', 0.952);

Continue with the next compound.
Problem: # normalized growth lookup, item Cc1c(O)c(C(=O)CC(C)C)c2oc3c(C(=O)CC(C)C)c(O)c(C)c(O)c3c2c1O
Solution: 1.01

====

Assay: chemical genetic growth profiling, strain panel (AID 1159580);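 note: tested at 20 µM; growth read once vehicle control cultures reached saturation at 30 °C; 1 = growth at the plate median or of vehicle wells; lower values mean less growth of the strain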
Settings: S. cerevisiae deletion strains, growth OD, locus YDL101C, strain DUN1
About 2,000 (36%) of roughly 5,500 compounds were called active. Inconclusive results (about 18%) are left out. Cut-off read from the data, not from the text of the source: active = normalized growth mostly below about 0.91 (no sharp cut-off); inconclusive = no clear call, values can overlap the other calls; inactive = mostly above about 0.92. Some of the results follow.
Select the matching outcome among 1 (active), 0 (inactive)

Use these answered entries as a reference point.
INSERT INTO assay_data (compound, category) VALUES
  ('COc1cc2c(cc1OC)[C@@H]1C(=O)c3ccc(O)c(CC=C(C)C)c3O[C@@H]1CO2', 0),
  ('c1ccc(N=Nc2ccccc2)cc1', 0),
  ('Cc1nnsc1C(=O)Nc1cc(C(F)(F)F)cc(C(F)(F)F)c1', 0);

Problem: What classification did COc1cc2c(cc1OC)C1C(=O)c3ccc4c(c3OC1CO2)CCC(C)(C)O4 (stereo not drawn) end up with in this test?
Solution: 0

Problem: Further, for Cc1ccc(/C=C2\CSc3ccc(F)cc3C2=O)cc1 ?
Solution: 0

Problem: Further, for OC1(C(F)(F)F)CC(C23CC4CC(CC(C4)C2)C3)=NN1 (stereo not drawn) ?
Solution: 1

Problem: Further, for CC(C)(C)CN/C(C#N)=C(/C#N)NCc1cccc(Cl)c1 ?
Solution: 0

Problem: Further, for S=c1nc[nH]c2nc[nH]c12 ?
Solution: 0

Problem: Further, for c1ccc(N=Nc2ccc(Nc3ccccc3)cc2)cc1 ?
Solution: 0

Problem: Further, for Cc1cc(C(=O)NNc2ccc(F)cc2F)no1 ?
Solution: 0
